Measured values drawn from PubChem BioAssay for this set.

System: Noggin (protein binding on small-molecule microarray)
Test: Noggin binders on small-molecule microarray, primary screen, biochemical, 635/667 nm fluorescence (AID 1095);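 also: score merges 667 nm feature fluorescence with signal to noise over triplicate slides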
Conditions: 635 nm fluorescence, higher = more signal
QUANTITY_KIND: composite z-score
Give bare numbers.

>>> data_value("CC(C)C[C@@H]1NC(=O)[C@@H]2C[C@H](C(=O)NCCCCCN)[C@H](c3cccc(OCCO)c3)N2C1=O")
0.359
>>> data_value("CC(C)(C)OC(=O)CC[C@@]1(C(N)=O)N=C(c2ccc(OCCCO)cc2)O[C@@H]1c1ccccc1")
0.392
>>> data_value("C=CCOC(=O)[C@@H]1[C@H]2C(=O)O[C@H](c3ccccc3)[C@H](c3ccccc3)N2[C@H](c2ccc(OCCOC(=O)[C@@H]3C[C@@H]4C(=O)N[C@@H](CCCCN(C)C)C(=O)N4[C@@H]3c3ccc(O)cc3)cc2)[C@@]12C(=O)Nc1ccc(I)cc12")
1.24
>>> data_value("C=CCNC(=O)[C@@H]1[C@H]2C(=O)O[C@H](c3ccccc3)[C@H](c3ccccc3)N2[C@H](c2ccc(OCCO)cc2)[C@@]12C(=O)Nc1ccc(C#Cc3ccc(OC)cc3)cc12")
1.22
>>> data_value("CN1C(=O)C2C=CC(C(O)c3ccccc3)N(Nc3ccccc3)C2C1=O (stereo not given)")
-1.09
>>> data_value("C=CCN1C(=O)[C@]2(O[C@H](CCO)[C@@H]([Si](C)(C)c3ccc(OC)cc3)[C@@H]2C)c2cc(N3CCCCC3=O)ccc21")
1.06
>>> data_value("C=CCNC(=O)[C@@H]1[C@H]2C(=O)O[C@H](c3ccccc3)[C@H](c3ccccc3)N2[C@H](c2ccccc2OCCO)[C@@]12C(=O)N(C(=O)OCCOC)c1ccc(C#CCNC(N)=O)cc12")
0.61
>>> data_value("Cc1ccc(S[C@]2(C(=O)NCCN3CCOCC3)CC(=O)N(Cc3ccccc3)[C@@H]2c2ccc(CO)cc2I)cc1")
-1.57

Report composite z-score for each item below.
1. O=C1O[C@@H](c2ccccc2)[C@@H](c2ccccc2)N2[C@@H](c3ccc(OCCO)cc3)[C@]3(C(=O)Nc4ccccc43)[C@@H](C(=O)NC[C@H](O)c3ccccc3)[C@H]12
2. COC(=O)[C@@]1(Cc2ccccc2)[C@H]2c3cc(C(=O)N4CCCC4)n(CC4CC4)c3C[C@H]2CN1C(=O)c1ccccc1
3. COCCOC(=O)N1C(=O)[C@@]2(c3cc(C#CC4=CCCCC4)ccc31)[C@H](C(=O)Nc1nc3ccccc3s1)[C@H]1C(=O)O[C@H](c3ccccc3)[C@H](c3ccccc3)N1[C@@H]2c1ccc(OCCO)cc1
4. C=CCNC(=O)[C@@H]1[C@H]2C(=O)O[C@H](c3ccccc3)[C@H](c3ccccc3)N2[C@H](c2ccc(OCCO)cc2)[C@@]12C(=O)Nc1ccc(C#CCCO)cc12
5. CCOC1=C2C(CN(S(=O)(=O)c3ccc(C)cc3)C2c2ccc(C)cc2)C2C(=O)N(c3ccccc3)C(=O)C2C1 (stereo not given)

1. 0.457
2. 0.294
3. 1.23
4. 1.36
5. 0.257

Report composite z-score for each item below.
1. C=CCOC(=O)[C@H]1[C@@H]2C(=O)O[C@@H](c3ccccc3)[C@@H](c3ccccc3)N2[C@@H](c2ccc(OCCOC(=O)[C@H]3C[C@H]4C(=O)N[C@@H](CC(C)C)C(=O)N4[C@H]3c3ccc(O)cc3)cc2)[C@]12C(=O)Nc1ccc(I)cc12
2. C=C[C@H](COC(C)=O)N(C(=O)OC(C)(C)C)S(=O)(=O)c1ccc(Br)cc1
3. COC(=O)c1c(CC[C@@H](CO)NC(=O)N[C@@H](C)Cn2cc(C3(O)CCCCC3)nn2)oc(C(C)=O)c1C(=O)OC
4. C=C(C)C1C(=C)CN([C@H](CO)c2ccccc2)C1=O (stereo not given in full)
5. [N-]=[N+]=NCc1ccccc1C[C@]1(C(=O)N2CCOCC2)N=C(c2ccc(OCCCO)cc2)O[C@H]1c1ccccc1N=[N+]=[N-]
6. C=CCC(OC(C)=O)[C@@H]1[C@@H](N(Cc2ccc(-c3cccc(C(F)(F)F)c3)o2)C(=O)Cc2ccc(F)cc2)c2cc(OCCCO)ccc2N1C(=O)Cc1ccc(OC)cc1 (stereo not given in full)
7. COC(=O)C(CC#Cc1ccc2c(c1)[C@]1(C(=O)N2)[C@H](C(=O)O)[C@H]2C(=O)O[C@H](c3ccccc3)[C@H](c3ccccc3)N2[C@@H]1c1ccc(O)cc1)C(=O)OC

1.67
1.09
1.16
0.245
1.5
-0.137
-0.868

Report composite z-score for each item below.
1. COc1ccc(CCN2C(=O)[C@@]3(c4ccc([N+](=O)[O-])cc4)CC(=O)N(C4CCCCC4)[C@@H]3c3ccc(CO)cc32)cc1
2. COCCOC(=O)N1C(=O)[C@@]2(c3cc(C#CC4=CCCCC4)ccc31)[C@H](c1ccc(O)cc1)N1[C@H](c3ccccc3)[C@H](c3ccccc3)OC(=O)[C@H]1[C@@H]2C(N)=O

[0.792, 1.63]

----------
Assay: basal S. cerevisiae growth modulation, no modifier, primary screen, OD600, strain BY4716, 24 h, basal condition (AID 1173)
Details: OD600, 24 h, called active from +8 up or from −8 down
Active and inactive are the calls of the source.
Mark one answer only. Choices: Y = active, N = inactive

# count of solved cases: 3
>>> cat("CN1C(=O)C2C=CC(C(O)c3ccc(-c4ccccc4)s3)N(N(c3ccccc3)c3ccccc3)C2C1=O (centres undefined)")
"N"
>>> cat("CCOC(=O)[C@H]1CC=C2CC1C(=O)N1CCC[C@@H]1[C@@H]2O[Si](C)(C)C(C)(C)C (some centres undefined)")
"Y"
>>> cat("C=CCC(OC(C)=O)[C@@H]1[C@@H](N(Cc2ccc(-c3ccccc3)cc2)C(=O)Cc2ccc(F)cc2)c2cc(OCCCO)ccc2N1C(=O)c1ccc(-c2ccccc2)cc1 (some centres undefined)")
"N"

Please turn your attention to the following entry.
Can you look up the reported call for "CCOC(=O)C[C@H]1[C@H](OC(=O)c2ccc(C(=O)c3ccccc3)cc2)[C@@H](NC(=O)c2ccc(-c3ccccc3)cc2)c2cc(OCCCO)ccc2N1C(=O)c1ccccc1" for me?
N

----------
Test: COS7 lysate on small-molecule microarray, probe aHis, 635 nm (AID 1123);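 also: z-score combines 667nm fluorescence intensity with signal-to-noise per printed compound spot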
Conditions: COS7 cell lysate, fluorescence, higher = more signal
QUANTITY_KIND: composite z-score
Give bare numbers.

>>> data_value("COc1ccc(C(O)C2C=CC3C(=O)N(C)C(=O)C3N2N2CCCCC2)c2ccccc12 (centres undefined)")
2.89
>>> data_value("COc1ccc(C(O)C2C=CC3C(=O)N(c4ccccc4)C(=O)C3N2Nc2ccc(C(C)C)cc2)cc1OCc1ccccc1 (centres undefined)")
1.78
>>> data_value("COC(=O)c1c(CC[C@@H](CO)NC(=O)N2CCC[C@H]2Cn2cc(-c3ccccn3)nn2)oc(C(C)=O)c1C(=O)OC")
0.043

Below: the item to evaluate.
For the compound shown here, Cc1ccc(C(C)CC(O)C2C=CC3C(=O)N(C)C(=O)C3N2NC(=O)OC(C)(C)C)o1 (centres undefined) , give the reported composite z-score.
2.44

----------
Test: small-molecule microarray binders of probe aLefty2, primary screen, biochemical, biotinylated probe, 635/667 nm fluorescence (AID 1094);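 also: score merges spot fluorescence near 667 nm with spot signal-to-noise ratio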
Settings: higher = more signal
QUANTITY_KIND: composite z-score
Answers are plain numbers.

>>> data_value("O=C(O)[C@@]1(CCS(=O)(=O)c2ccccc2)COC(c2ccc(OCCCO)cc2)=N1")
0.188
>>> data_value("O=C(NCc1ccc(F)cc1)[C@H]1C[C@H]2C(=O)N[C@@H](Cc3ccccc3)C(=O)N2[C@H]1c1ccc(O)cc1")
-0.118
>>> data_value("[N-]=[N+]=Nc1ccccc1C[C@@]1(C(=O)NCCN2CCOCC2)N=C(c2ccc(OCCCO)cc2)O[C@@H]1c1ccccc1")
-0.0673

Report composite z-score for each item below.
1. COc1ccc(CCNC(=O)[C@@]2(Sc3ccc(C)cc3)CC(=O)N(C3CCCCC3)[C@@H]2c2ccc(CO)cc2I)cc1
2. O=C1O[C@H](c2ccccc2)[C@H](c2ccccc2)N2[C@H]1[C@@H](C(=O)Nc1nc3ccccc3s1)[C@]1(C(=O)Nc3ccc(C#CCCO)cc31)[C@H]2c1ccc(OCCO)cc1
3. COc1ccc(C(O)C2C=CC3C(=O)NC(=O)C3N2Nc2ccccn2)c2ccccc12 (centres undefined)
4. O=C1C2C=CC(C(O)C3CCCCC3)N(Nc3ccc([N+](=O)[O-])cc3)C2C(=O)N1c1ccccc1 (centres undefined)
5. CC(C)(C)OC(=O)CC[C@@]1(C(=O)NCCN2CCOCC2)N=C(c2ccc(OCCCO)cc2)O[C@@H]1c1ccccc1N=[N+]=[N-]
6. [N-]=[N+]=Nc1ccccc1[C@H]1OC(c2ccc(OCCCO)cc2)=N[C@@]1(Cc1ccccc1)C(=O)O
7. CC(C)C(=C=CC[C@@H](O)c1ccccc1OCCO)CCO
8. [N-]=[N+]=NCc1ccccc1[C@@H]1OC(c2ccc(OCCCO)cc2)=N[C@]1(CCS(=O)(=O)c1ccccc1)C(=O)NCCN1CCOCC1

-0.0823
-0.137
-0.132
-0.314
0.591
-0.0152
-0.0998
0.0542

Report composite z-score for each item below.
1. COc1ccc(C(=O)Nc2cccc(CN3C(=O)[C@]4(O[C@H](CCO)[C@@H]([Si](C)(C)c5ccc(OC)cc5)[C@@H]4C)c4ccccc43)c2)cc1
2. CN(C)C(=O)[C@]1(Cc2ccccc2N=[N+]=[N-])N=C(c2ccc(OCCCO)cc2)O[C@@H]1c1ccccc1
3. COc1ccc([C@H]2OC[C@@H]3CC4(CC=CC4)C(=O)N32)cc1
4. COC(=O)[C@@]1(Cc2ccc(OC)cc2)[C@H]2c3cc(C(=O)N(C)C)n(Cc4cccc5ccccc45)c3C[C@H]2CN1C(=O)c1ccccc1
5. O=C1NC(=O)C2C1C=CC(C(O)c1ccccc1)N2Nc1ccc(Cl)cc1Cl (centres undefined)
6. CN1C(=O)C2C=CC(C(O)c3ccc(I)cc3)N(N3CCCCC3)C2C1=O (centres undefined)
7. O=C1O[C@H](c2ccccc2)[C@H](c2ccccc2)N2[C@H]1[C@@H](C(=O)Nc1nc3ccccc3s1)[C@]1(C(=O)Nc3ccc(C#CC4(O)CCCCCC4)cc31)[C@H]2c1ccc(OCCO)cc1

1. -0.164
2. 0.149
3. -0.0171
4. 1.07
5. 0.0847
6. 0.583
7. 0.0317

Report composite z-score for each item below.
1. O=C(NCc1ccccc1)[C@@]1(CCS(=O)(=O)c2ccccc2)N=C(c2ccc(OCCCO)cc2)O[C@H]1c1ccccc1
2. CCCCC(O)C1C=CC2C(=O)N(c3ccccc3)C(=O)C2N1Nc1ccccc1F (centres undefined)
3. COc1ccc([Si](C)(C)[C@H]2[C@H](CCn3cc([C@H](O)c4ccccc4)nn3)O[C@@]3(C(=O)N(Cc4cccc(N5CCOC5=O)c4)c4ccccc43)[C@@H]2C)cc1
4. CN(C)C(=O)[C@]1(Cc2ccccc2CN=[N+]=[N-])N=C(c2ccc(OCCCO)cc2)O[C@@H]1c1ccccc1CN=[N+]=[N-]

1: 0.215; 2: 0.648; 3: 0.0342; 4: 0.0112

Report composite z-score for each item below.
1. COCCOC(=O)N1C(=O)[C@@]2(c3cc(C#CCCO)ccc31)[C@H](c1ccc(OCCO)cc1)N1[C@H](c3ccccc3)[C@H](c3ccccc3)OC(=O)[C@H]1[C@@H]2C(=O)N1CCN(c2ncccn2)CC1
2. CC1CC/C=C\[C@H]2OC34C=CCN(Cn5nnc6ccccc65)C(=O)[C@H]3N(C(CO)C(C)C)C(=O)[C@@H]4C2C(=O)O1 (some centres undefined)
3. O=C1OCCC/C=C\[C@H]2OC34C=CCN(CCN5CCOCC5)C(=O)[C@H]3N(CCCO)C(=O)[C@@H]4C12 (some centres undefined)
4. CCOC(=O)C[C@H]1[C@H](OC(=O)Cc2ccc3c(c2)OCO3)[C@@H](NC(=O)c2ccc(-c3ccccc3)cc2)c2cc(OCCCO)ccc2N1C(=O)Cc1ccc(OC)cc1
5. COC(=O)[C@@]1(Cc2ccc(F)cc2)[C@@H]2[C@@H](CC(=O)[C@H]2CC(=O)C(=O)N(C)C)CN1C(=O)c1ccccc1
6. C=C(CCCC)C(=O)CC[C@H](OC(C)=O)c1cccc(OCCO)c1
7. O=C1OCCC/C=C\[C@H]2OC34C=CCN(Cn5nnc6ccccc65)C(=O)[C@H]3N(CCO)C(=O)[C@@H]4C12 (some centres undefined)

[-0.123, 0.0723, -0.381, 0.0163, 0.288, -0.215, 0.478]
